// reported Isolation of isoflavone aglycons by diglycosidase in presence of glucose per item
System: Purified diglycosidase
protocol_notes: Influence of free glucose on diglycosidase activity
Type: biochemical, Penicillium multicolor IAM7153
run_parameters: Glucose concentration 20 %; isolated aglycon amount at glucose 0% and 0.5 hour = 100%
observable: Isolation of isoflavone aglycons by diglycosidase in presence of glucose

{"molecular_string": "O=C(O)CC(=O)OC[C@H]1O[C@@H](Oc2cc(O)c3c(=O)c(-c4ccc(O)cc4)coc3c2)[C@H](O)[C@@H](O)[C@@H]1O", "observed_value": "139.5%"}
{"molecular_string": "CC(=O)OC[C@H]1O[C@@H](Oc2ccc3c(=O)c(-c4ccc(O)cc4)coc3c2)[C@H](O)[C@@H](O)[C@@H]1O", "observed_value": "114.5%"}
{"molecular_string": "COc1cc2c(=O)c(-c3ccc(O)cc3)coc2cc1O[C@@H]1O[C@H](CO)[C@@H](O)[C@H](O)[C@H]1O", "observed_value": "92.8%"}
